Data origin, for the record: patent US9745339B2

Molecular target: Bevacizumab (Homo sapiens)
Construct: 0.5 mg/ml IgG in PBS pH 7.3; ligand immobilized on SEPHAR; Bevacizumab Yield; other: mass eluted (glycine pH 2.5) / mass injected; kd (dissociation constant, Langmuir isotherm); other: Bevacizumab 0.05-5 mg/ml in PBS pH 7.3, 25° C., at least 3 h; qm (maximum capacity); other: mg Bevacizumab per ml of resin; Langmuir isotherm; t0; fused on or other part: Humanized anti-VEGF-A VH domain joined N-terminally to the IGHG1 constant region (engineered, no UniProt entry)
Test: Microtiter plate chromatography of resins: binding and elution of Bevacizumab
Settings: mass eluted (glycine pH 2.5) / mass injected
What Bevacizumab Yield was measured for each of the following?
Numbers only, in %.

STRUCTURE | Bevacizumab Yield [%]
NCCCn1cnc2cc(NC(=O)c3cn4ccsc4n3)ccc21 | 100
Cc1nc2cc(C(=O)Nc3nc(-c4ccccn4)cs3)ccc2n1CCCN | 98
NCCCn1cnc2cc(C(=O)Nc3nnc(-c4ccccc4)s3)ccc21 | 105
NCCOCCOc1ccc(C(=O)Nc2nnc(-c3ccco3)s2)cc1 | 87
NCCCOc1ccc(C(=O)Nc2nc(-c3ccccn3)cs2)cc1 | 106
Cc1nsc(NC(=O)c2ccc3c(c2)ncn3CCCN)n1 | 104

Batch of 4 compounds: report Bevacizumab Yield for each.
1. Cc1cc(NC(=O)c2ccc3c(c2)ncn3CCCN)nn1-c1ccccc1
2. Cc1nnc(NC(=O)c2ccc3c(c2)ncn3CCCN)s1
3. CCc1nnc(NC(=O)c2ccc3c(c2)ncn3CCCN)s1
4. Cc1nc2cc(C(=O)Nc3nc(-c4ccncc4)cs3)ccc2n1CCCN

Ans:
99
100
93
95

Hello, I would appreciate it if you could give Bevacizumab Yield for each entry below.
1. NCCCn1cnc2cc(C(=O)Nc3nc4c(s3)CCC4)ccc21
2. Cc1ccc(NC(=O)c2ccc3c(c2)ncn3CCCN)nn1
3. NCCCn1cnc2cc(C(=O)Nc3nc(-c4ccccn4)cs3)ccc21
4. NCCCn1cnc2cc(C(=O)Nc3nc(-c4ccncc4)cs3)ccc21
5. NCCCn1cnc2cc(C(=O)Nc3nc(-c4ccccc4)ns3)ccc21
6. Cn1nc(C(=O)Nc2ccc3c(c2)ncn3CCCN)c2ccccc21
7. NCCCOc1ccc(C(=O)Nc2nnc(-c3ccco3)s2)cc1

Ans:
1. 103
2. 104
3. 107
4. 100
5. 104
6. 90
7. 100

* * *

Test system: Bevacizumab
Experiment: Microtiter plate chromatography of resins: binding and elution of Bevacizumab
Details: fraction of bound Bevacizumab divided by fraction of bound HCP; truncated for values beyond 10
PROPERTY_MEASURED: Selectivity
One number for each entry.

STRUCTURE | SYSTEM_NAME | PROPERTY_MEASURED | RECORDED_MEASUREMENT
NCCCn1cnc2cc(C(=O)Nc3nc4ccccc4s3)ccc21 | Bevacizumab | Selectivity | 2.2

Batch lookup, Selectivity per entry.
1. NCCCn1cnc2cc(C(=O)Nc3nnc(-c4ccc5c(c4)OCO5)s3)ccc21
2. Cc1ccc(NC(=O)c2ccc3c(c2)ncn3CCCN)nn1
3. Cc1cnc(NC(=O)c2ccc3c(c2)ncn3CCCN)s1
4. COc1ccc(NC(=O)c2nn(CCCN)c3ccccc23)cc1C(N)=O

Ans:
1: 2.6; 2: 10.0; 3: 2.9; 4: 3.6

* * *

Please respond with reported Tocilizumab Bound for every item in the list.
System: Tocilizumab
Experiment: Microtiter plate chromatography of resins: binding and elution of Tocilizumab
Conditions: L55-73: estimated values based on the knowledge obtained from L01-L54
Method: Resins were assessed in packed mode by microtiter plate chromatography. For each column, approximately 30 μl of resin were transferred to a 384-well filter plate and sealed with appropriate top fits. […] Unbound protein was washed from columns with 5 cv of PBS prior to elution with 5 cv of glycine buffer at pH 2.5. […] Effluent fractions were collected in 384-well plates and concentrations of protein were analyzed by Bradford assay. […]

COMPOUND | SYSTEM_NAME | PROPERTY_MEASURED | RECORDED_MEASUREMENT
CCc1nc2cc(C(=O)Nc3nnc(-c4ccoc4)s3)ccc2n1CCCN [Ligand L66] | Tocilizumab | Tocilizumab Bound | >95%
CCc1nc2cc(C(=O)Nc3nc(-c4ccco4)ns3)ccc2n1CCCN [Ligand L65] | Tocilizumab | Tocilizumab Bound | >95%
Cc1nc2cc(C(=O)Nc3ncc(-c4ccco4)s3)ccc2n1CCCN [Ligand L63] | Tocilizumab | Tocilizumab Bound | >95%

Please look at the items below and tell me Tocilizumab Bound for each one, in order.
1. NCCCn1cnc2cc(C(=O)Nc3nc(-c4ccco4)cs3)ccc21 [Ligand L57]
2. NCCCn1cnc2cc(C(=O)Nc3ncc(-c4ccco4)s3)ccc21 [Ligand L58]
3. NCCCn1cnc2cc(C(=O)Nc3nnc(-c4ccoc4)s3)ccc21 [Ligand L56]
4. Cc1nc2cc(C(=O)Nc3nnc(-c4cnco4)s3)ccc2n1CCCN [Ligand L72]
5. Cc1nc2cc(C(=O)Nc3nc(-c4ccco4)ns3)ccc2n1CCCN [Ligand L60]

Ans:
1. >95%
2. >95%
3. >95%
4. >90%
5. >95%

Give me Tocilizumab Bound for each of these compounds, listed below.
1. Cc1nc2cc(C(=O)Nc3nnc(-c4ccoc4)s3)ccc2n1CCCN [Ligand L61]
2. NCCCn1cnc2cc(C(=O)Nc3nc(-c4ccco4)ns3)ccc21 [Ligand L55]
3. CCc1nc2cc(C(=O)Nc3ccc(-c4ccco4)nn3)ccc2n1CCCN [Ligand L69]
4. Cc1nc2cc(C(=O)Nc3nc(-c4ccco4)cs3)ccc2n1CCCN [Ligand L62]
5. CCc1nc2cc(C(=O)Nc3ncc(-c4ccco4)s3)ccc2n1CCCN [Ligand L68]

Ans:
>95%
>95%
>90%
>95%
>95%

Q: Tocilizumab Bound lookup needed for Cc1nc2cc(C(=O)Nc3ccc(-c4ccco4)nn3)ccc2n1CCCN [Ligand L64] , thanks.
Ans: >90%
